Parameter: EC50. Scope: all listed entries.
target: STAT6 (Homo sapiens, UniProt P42226); construct: stably transfected HaCaT keratinocyte cell line, which expresses NanoLuc luciferase reporter gene under the transcriptional control of the STAT6 responsive promoter; endogenous in cells; host or cells: HaCaT keratinocyte reporter cell line (stably transfected with a NanoLuc reporter); experiment: STAT6 Reporter Luciferase Assay (IL-13 stimulated HaCaT keratinocyte NanoLuc reporter cells); assay type: cell-based; settings: IL-13 stimulated HaCaT STAT6 NanoLuc reporter cells; read-out: Reporter EC50
Sequence (P42226 whole entry): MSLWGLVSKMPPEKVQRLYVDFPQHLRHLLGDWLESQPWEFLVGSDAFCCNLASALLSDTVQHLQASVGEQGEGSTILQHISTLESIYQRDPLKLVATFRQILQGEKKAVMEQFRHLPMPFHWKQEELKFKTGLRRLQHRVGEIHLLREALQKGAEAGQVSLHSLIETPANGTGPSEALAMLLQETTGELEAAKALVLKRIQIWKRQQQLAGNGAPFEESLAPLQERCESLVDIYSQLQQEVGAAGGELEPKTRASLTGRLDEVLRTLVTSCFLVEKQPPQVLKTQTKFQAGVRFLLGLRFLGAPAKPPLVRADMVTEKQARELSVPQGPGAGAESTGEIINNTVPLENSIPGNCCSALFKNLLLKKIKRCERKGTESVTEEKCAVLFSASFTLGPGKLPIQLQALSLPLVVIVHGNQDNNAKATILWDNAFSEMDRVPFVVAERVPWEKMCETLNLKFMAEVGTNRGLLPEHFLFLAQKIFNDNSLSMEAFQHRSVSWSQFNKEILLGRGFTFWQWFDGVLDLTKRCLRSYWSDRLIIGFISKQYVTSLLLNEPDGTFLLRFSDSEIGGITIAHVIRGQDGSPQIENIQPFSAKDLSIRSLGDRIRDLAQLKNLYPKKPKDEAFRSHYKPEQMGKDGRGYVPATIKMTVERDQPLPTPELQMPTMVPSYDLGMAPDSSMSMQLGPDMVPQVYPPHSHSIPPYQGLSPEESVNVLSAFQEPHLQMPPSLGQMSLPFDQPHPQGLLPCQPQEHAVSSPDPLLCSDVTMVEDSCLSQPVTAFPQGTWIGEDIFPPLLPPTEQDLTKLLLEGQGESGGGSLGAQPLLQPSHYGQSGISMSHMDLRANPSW
Field: numeric (nM). Do not append units.

// below: answered compounds
>  <smiles text>
CN[C@H]1CCCN(C(=O)Nc2ccc(CNC(=O)c3nn(C(C)C)c4c3CN(c3ccc(C(=O)N(C)C)cc3)C[C@@H]4C)cc2F)C1

>  <experimental target>
STAT6 (Homo sapiens, UniProt P42226)

>  <observed result>
4

$$$$
>  <smiles text>
CC(C)n1nc(C(=O)NCc2ccc(NC(=O)C3CCN(C)CC3)cc2)c2c1[C@@H](C)CN(c1ccc(C(=O)N(C)C)cc1)C2

>  <experimental target>
STAT6 (Homo sapiens, UniProt P42226)

>  <observed result>
6

$$$$

Please look at the following compound next.
Specify measured EC50 for CC(C)n1nc(C(=O)NCc2ccc(NC(=O)N(C)C)cc2)c2c1[C@@H](C)CN(c1ncc(N3CCCC3=O)cn1)C2 .
2

====

Molecular target: STAT6 (Homo sapiens, UniProt P42226)
Construct: stably transfected HaCaT keratinocyte cell line, which expresses NanoLuc luciferase reporter gene under the transcriptional control of the STAT6 responsive promoter; endogenous in cells; host or cells: HaCaT keratinocyte reporter cell line (stably transfected with a NanoLuc reporter)
Assay: STAT6 Reporter Luciferase Assay (IL-13 stimulated HaCaT keratinocyte NanoLuc reporter cells)
Assay type: cell-based
Settings: IL-13 stimulated HaCaT STAT6 NanoLuc reporter cells; read-out: Reporter EC50
Excerpt: Pharmacological measurements of STAT6 transcriptional activity through the IL-13-IL-13 receptor/IL-4 receptor pathway were made with a stably transfected HaCaT keratinocyte cell line, which expresses NanoLuc luciferase reporter gene under the transcriptional control of the STAT6 responsive promoter for IL-13Ra2. The readout of the STAT6 activity utilized Promega Nano-Glo Luciferase assay kit. […]
reported endpoint: EC50 (nM)
Form entry: value (nM) — number only.

Read the entry CC(C)n1nc(C(=O)NCc2ccc(NC(=O)N3CCC4(CC3)CCN4C)c(F)c2)c2c1[C@@H](C)CN(c1ccc(C(=O)N(C)C)cn1)C2 and write its reported EC50.
1

Kindly indicate its recorded EC50. Item: CC(C)n1nc(C(=O)NCc2ccc(NC(=O)N(C)C)cc2)c2c1CCN(c1ccc(C(=O)N3Cc4cncnc4C3)cn1)C2
39

For CC(C)n1nc(C(=O)NCc2ccc(NC(=O)N3CCN4CCC[C@@H]4C3)cc2)c2c1[C@@H](C)CN(c1ccc(C(=O)N(C)C)cc1)C2 , write its EC50.
0.5

====

target: STAT6 (Homo sapiens, UniProt P42226); construct: stably transfected HaCaT keratinocyte cell line, which expresses NanoLuc luciferase reporter gene under the transcriptional control of the STAT6 responsive promoter; endogenous in cells; host or cells: HaCaT keratinocyte reporter cell line (stably transfected with a NanoLuc reporter); experiment: STAT6 Reporter Luciferase Assay (IL-13 stimulated HaCaT keratinocyte NanoLuc reporter cells); format: cell-based; conditions: IL-13 stimulated HaCaT STAT6 NanoLuc reporter cells; read-out: Reporter EC50
Reported log10 EC50 values are given for each entry in this list.
Parameter value (number): base-10 log of EC50 in nM.

Some solved entries appear below for comparison.
>  <compound>
CCn1nc(C(=O)NCc2ccc(NC(=O)N(C)C)cc2)c2c1[C@H](C)[C@@H](C)N(c1ncc(C(=O)N(C)C)cn1)C2 (single isomer, unassigned)

>  <observed result>
1.18

$$$$
>  <compound>
CNC(=O)Nc1ccc(CNC(=O)c2nn(C(C)C)c3c2CN(c2ccc(N4CCOC4=O)cn2)C[C@@H]3C)cc1

>  <observed result>
0.00

$$$$
>  <compound>
CC(C)n1nc(C(=O)NCc2ccc(NC(=O)N3CCN4CCCC[C@H]4C3)cc2)c2c1[C@@H](C)CN(c1ccc(C(=O)N(C)C)cc1)C2

>  <observed result>
0.00

$$$$
>  <compound>
CC(C)n1nc(C(=O)NCc2ccc(NC(=O)N(C)C)cc2)c2c1CCN(c1ccc(C(=O)N3Cc4ccccc4[C@H]3C)cn1)C2

>  <observed result>
1.11

$$$$
>  <compound>
CC(C1CCC1)n1nc(C(=O)NCc2ccc(NC(=O)N(C)C)cc2)c2c1CCN(c1ccc(C(=O)N(C)C)cn1)C2 (stereo not drawn)

>  <observed result>
0.95

$$$$
>  <compound>
CC(C)n1nc(C(=O)NCc2ccc(NC(=O)N(C)C)cc2)c2c1CCN(c1ccc(C(=O)N3CCCC(O)C3)cn1)C2 (racemic)

>  <observed result>
2.53

$$$$
>  <compound>
CNC(=O)c1ccc(CNC(=O)c2nn(C(C)C)c3c2CN(c2ccc(C(=O)N4Cc5cccnc5C4)cn2)C[C@@H]3C)cc1

>  <observed result>
0.00

$$$$
>  <compound>
CC(C)n1nc(C(=O)NCc2ccc(C(N)=O)cc2)c2c1[C@@H](C)CN(c1ccc(N3CCCC3=O)cn1)C2

>  <observed result>
0.60

$$$$
>  <compound>
COCCN1CCC(CN(C)C(=O)c2ccc(N3Cc4c(C(=O)NCc5ccc(NC(=O)N(C)C)cc5)nn(C(C)C)c4[C@@H](C)C3)cc2)CC1

>  <observed result>
0.70

$$$$
>  <compound>
CC(C)n1nc(C(=O)NCc2ccc(NC(=O)N3CCN(C)C4(CC4)C3)c(F)c2)c2c1[C@@H](C)CN(c1ccc(C(=O)N(C)C)cc1)C2

>  <observed result>
0.00

$$$$

Output measured log10 EC50 for this item: CC(C)n1nc(C(=O)NCc2ccc(NC(=O)N(C)C)cc2)c2c1CC(C(F)(F)F)N(c1ccc(C(=O)N(C)C)cn1)C2 (single isomer, unassigned) [Example 277]
1.00

Give recorded log10 EC50. CC(CO)n1nc(C(=O)NCc2ccc(NC(=O)N(C)C)cc2)c2c1CCN(c1ccc(C(=O)N(C)C)cn1)C2 (racemic) [Example 351]
1.86
